# TESTED TARGET: Tau-RD3 (Tau repeat domain 3) (Homo sapiens)
# PROCEDURE TEXT: Tau disaggregation test by thioflavin-T assay
# Type: biochemical
# CONDITION INFO: 35 μM Tau-RD3 aggregated 24 hours, then compound 0-500 μM for 48 hours at 37° C.
MEASURED ATTRIBUTE: EC50 (µM)

Sample answers from the record:
In [3]: df
Out[3]:
                         structure_notation                             tested_target  measured_attribute  units  recorded_value
0  Cc1scnc1C1=C(c2cccnc2)C(=O)c2cc(OCCCN3CCOCC3)ccc21  Tau-RD3 (Tau repeat domain 3) (Homo sapiens)                EC50     µM             156
1  O=C1C(c2cccnc2)=C(c2ccoc2)c2ccc(OCOCc3ccccc3)cc21  Tau-RD3 (Tau repeat domain 3) (Homo sapiens)                EC50     µM            67.1
2  CN(C)c1ccc(OCCOc2ccc3c(c2)C(=O)C(c2cccnc2)=C3c2ccoc2)cc1  Tau-RD3 (Tau repeat domain 3) (Homo sapiens)                EC50     µM             4.1
3  COc1ccc(OCCOc2ccc3c(c2)C(=O)C(c2cccnc2)=C3c2ccoc2)cc1  Tau-RD3 (Tau repeat domain 3) (Homo sapiens)                EC50     µM             124
4  COc1ccc(OCCOc2ccc3c(c2)C(=O)C(c2ccc(F)cc2)=C3c2ncsc2C)cc1OC  Tau-RD3 (Tau repeat domain 3) (Homo sapiens)                EC50     µM             5.2
5  COc1ccc(C2=C(c3ncsc3C)c3ccc(OCCCCc4ccccc4)cc3C2=O)cc1  Tau-RD3 (Tau repeat domain 3) (Homo sapiens)                EC50     µM             338
6  O=C1C(c2cccnc2)=C(c2ccoc2)c2ccc(OCCOc3ccc(Cl)c(Cl)c3)cc21  Tau-RD3 (Tau repeat domain 3) (Homo sapiens)                EC50     µM             2.1
7  Cc1ncsc1C1=C(c2ccccc2CC#N)C(=O)c2cc(OCCCc3ccccc3)ccc21  Tau-RD3 (Tau repeat domain 3) (Homo sapiens)                EC50     µM             321

(P) Cc1ncsc1C1=C(c2ccccc2)C(=O)c2cc(OCCCc3ccccc3)ccc21
(Q) COc1ccc(OCCOc2ccc3c(c2)C(=O)C(c2ccc(C(F)(F)F)cc2)=C3c2ncsc2C)cc1OC
(R) CC(C)c1ccc(OCCOc2ccc3c(c2)C(=O)C(c2cccnc2)=C3c2ccoc2)cc1
(S) Cc1ncsc1C1=C(c2cccnc2)C(=O)c2cc(OCCCc3ccccc3)ccc21
(T) COc1ccc(C2=C(c3ncsc3C)c3ccc(OCCc4ccccc4)cc3C2=O)cc1
Query string: Rank ascending by EC50. Give me the labels in the order the question wants.
Result string: R, S, Q, T, P

###

# TESTED TARGET: Tau-RD3 (Tau repeat domain 3) (Homo sapiens)
# PROCEDURE TEXT: Tau disaggregation test by thioflavin-T assay
# Format: biochemical
# CONDITION INFO: 35 μM Tau-RD3 aggregated 24 hours, then compound 0-500 μM for 48 hours at 37° C.
MEASURED ATTRIBUTE: EC50 (µM)

Sample answers from the record:
>>> print(df.to_string())
                         structure_notation  units  recorded_value
0  COc1ccc(OCCOc2ccc3c(c2)C(=O)C(c2cccnc2)=C3c2ccoc2)cc1OC     µM             2.8
1  O=C1C(c2cccnc2)=C(c2ccoc2)c2ccc(OCCOc3ccc(F)c(F)c3)cc21     µM              57

(P) Cc1ncsc1C1=C(c2cccs2)C(=O)c2cc(OCCCc3ccccc3)ccc21
(Q) Cc1scnc1C1=C(c2cccs2)C(=O)c2cc(OCCOc3ccc(F)c(F)c3)ccc21
Query string: Among P and Q , which shows a numerically higher EC50 result? Provide the label of your selected option as the answer.
Result string: Q

###

# TESTED TARGET: Aβ1-42 (Homo sapiens, UniProt P05067)
# Construct: dissolving Aβ1-42 or Tau-RD3 (Tau repeat domain 3) monomer in DMSO
# Sequence (P05067 672-713 limits assumed): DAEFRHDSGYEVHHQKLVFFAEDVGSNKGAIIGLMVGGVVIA
# PROCEDURE TEXT: Amyloid-beta (Aβ) disaggregation test by thioflavin-T assay
# Type: biochemical
# CONDITION INFO: 50 μM Aβ1-42 aggregated 24 hours, then compound 0-500 μM for 48 hours at 37° C.
MEASURED ATTRIBUTE: EC50 (µM)

>>> df
                         structure_notation  measured_attribute  units  recorded_value
0  CC(C)c1ccc(OCCOc2ccc3c(c2)C(=O)C(c2cccnc2)=C3c2ccoc2)cc1                EC50     µM             1.5

(P) O=C1C(c2cccnc2)=C(c2ccoc2)c2ccc(OCCc3ccccc3)cc21
(Q) Cc1scnc1C1=C(Br)C(=O)c2cc(OCCCN3CCOCC3)ccc21
Query string: Among P and Q , which shows a numerically higher EC50 result? Provide the label of your selected option as the answer.
Result string: Q

(A) Cc1scnc1C1=C(c2cccs2)C(=O)c2cc(OCCOc3ccc(F)c(F)c3)ccc21
(B) Cc1scnc1C1=C(c2cccs2)C(=O)c2cc(OCOCc3ccccc3)ccc21
(C) Cc1ncsc1C1=C(c2cccnc2)C(=O)c2cc(OCCCCc3ccccc3)ccc21
(D) COc1ccc(C2=C(c3ncsc3C)c3ccc(OCCc4ccccc4)cc3C2=O)cc1
Query string: Rank ascending by EC50. Give me the labels in the order the question wants.
Result string: C, B, D, A
(C: 2.5 µM, B: 3.7 µM, D: 26.1 µM, A: 46.3 µM)

###

# TESTED TARGET: Aβ1-42 (Homo sapiens)
# Construct: dissolving Aβ1-42 or Tau-RD3 (Tau repeat domain 3) monomer in DMSO
# PROCEDURE TEXT: Amyloid-beta (Aβ) disaggregation test by thioflavin-T assay
# Assay type: biochemical
# CONDITION INFO: 50 μM Aβ1-42 aggregated 24 hours, then compound 0-500 μM for 48 hours at 37° C.
MEASURED ATTRIBUTE: EC50 (µM)

In [3]: df
Out[3]:
                         structure_notation  recorded_value
0  Cc1ncsc1C1=C(Br)C(=O)c2cc(OCCCc3ccccc3)ccc21             3.8
1  Cc1ncsc1C1=C(c2cccnc2)C(=O)c2cc(OCCCc3ccccc3)ccc21             8.2
2  Cc1ncsc1C1=C(c2cccnc2)C(=O)c2cc(OCCc3ccccc3)ccc21             177
3  O=C1C(c2cccnc2)=C(c2ccoc2)c2ccc(OCCOc3ccccc3)cc21             1.1
4  Cc1scnc1C1=C(c2ccc(F)cc2)C(=O)c2cc(OCCOc3ccc4c(c3)OCO4)ccc21            99.6
5  Cc1scnc1C1=C(c2ccc(C(F)(F)F)cc2)C(=O)c2cc(OCCOc3ccc4c(c3)OCO4)ccc21            31.2

(a) COc1ccc(C2=C(c3ncsc3C)c3ccc(OCCCCc4ccccc4)cc3C2=O)cc1
(b) Cc1scnc1C1=C(c2cccnc2)C(=O)c2cc(OCCCc3ccccc3)ccc21
(c) Cc1scnc1C1=C(c2cncnc2)C(=O)c2cc(OCCOc3ccc(F)c(F)c3)ccc21
Query string: Rank by EC50 (largest to smallest). Give me the labels in the order the question wants.
Result string: c, a, b

###

# TESTED TARGET: Tau-RD3 (Tau repeat domain 3) (Homo sapiens, UniProt P10636)
# Sequence (P10636 623-653 limits assumed): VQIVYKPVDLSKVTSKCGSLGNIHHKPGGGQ
# PROCEDURE TEXT: Tau disaggregation test by thioflavin-T assay
# Assay type: biochemical
# CONDITION INFO: 35 μM Tau-RD3 aggregated 24 hours, then compound 0-500 μM for 48 hours at 37° C.
MEASURED ATTRIBUTE: EC50 (µM)

Sample answers from the record:
>>> print(df.to_string())
                                   compound                             tested_target  recorded_value
0  O=C1C(c2cccnc2)=C(c2ccoc2)c2ccc(OCCOc3ccc4c(c3)OCO4)cc21 [Compound 44]  Tau-RD3 (Tau repeat domain 3) (Homo sapiens, UniProt P10636)             2.7
1  O=C1C(c2cccnc2)=C(c2ccoc2)c2ccc(OCCc3ccccc3)cc21 [Compound 38]  Tau-RD3 (Tau repeat domain 3) (Homo sapiens, UniProt P10636)             120
2  Cc1ncsc1C1=C(c2cccnc2)C(=O)c2cc(OCCCc3ccncc3)ccc21 [Compound 13]  Tau-RD3 (Tau repeat domain 3) (Homo sapiens, UniProt P10636)             1.5
3  Cc1scnc1C1=C(c2cncnc2)C(=O)c2cc(OCCOc3ccc(Cl)c(Cl)c3)ccc21 [Compound 26]  Tau-RD3 (Tau repeat domain 3) (Homo sapiens, UniProt P10636)             4.8

(P) O=C1C(c2cccnc2)=C(c2cccs2)c2ccc(OCCCc3ccccc3)cc21 [Compound 6]
(Q) Cc1scnc1C1=C(Br)C(=O)c2cc(OCCCN3CCOCC3)ccc21 [Compound 5]
Query string: Kindly compare P with Q and tell me which has the lower EC50 figure. Provide the label of your selected option as the answer.
Result string: P
